Molecular target: HCV NS3 helicase NS3h_1b(con1) (Hepatitis C virus genotype 1b, UniProt Q9WMX2)
Construct: truncated C-terminally His-tagged NS3 proteins lacking the N-terminal protease, called NS3h; His-tag (C); made in house
Sequence (Q9WMX2 1192-1657): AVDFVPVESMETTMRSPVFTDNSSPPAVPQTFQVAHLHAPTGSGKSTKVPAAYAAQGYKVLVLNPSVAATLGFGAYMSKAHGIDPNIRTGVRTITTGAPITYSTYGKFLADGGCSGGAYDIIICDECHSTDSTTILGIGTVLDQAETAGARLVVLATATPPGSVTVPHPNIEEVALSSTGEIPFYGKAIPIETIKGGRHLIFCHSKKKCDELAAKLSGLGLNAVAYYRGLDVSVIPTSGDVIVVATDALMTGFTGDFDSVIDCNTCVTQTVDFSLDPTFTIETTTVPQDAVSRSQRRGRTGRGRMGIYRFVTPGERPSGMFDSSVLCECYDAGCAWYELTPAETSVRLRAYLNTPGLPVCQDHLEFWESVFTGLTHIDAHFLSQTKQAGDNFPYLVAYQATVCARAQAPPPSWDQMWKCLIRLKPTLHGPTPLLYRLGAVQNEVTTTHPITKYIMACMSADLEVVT
Test: MBHA screen of NCI mechanistic set library at 20 μM (percent inhibition, compound interference)
Format: biochemical
Conditions: compounds at 20 μM, MBHA with DNA substrate; calculated from Equation 1
test-readout: Inh. (%) (Inhibition)

What value of Inh. (%) (Inhibition) has been recorded for this entry: O=[N+]([O-])[O-].O=[N+]([O-])[O-].O=[N+]([O-])[O-].[Ga+3] [Compound 15200]
53.4

a = CC(=O)N=C1N(/C=C2\C(=O)Oc3ccccc3C2=O)C(=O)/C(=C/c2ccccc2Cl)N1C [Compound 658494]
b = COC(=O)c1ccc(=O)c2nc3/c(=C/O)c(O)cc(=O)c3[nH]c12 [Compound 106995]
c = C=C1CC(COc2cc(=O)oc3ccccc23)(c2ccccc2)OC1=O (stereo not shown) [Compound 668270]
Provide the items ranked by increasing Inh. (%) (Inhibition). Answer format: the labels, in the requested order.
b, a, c
